# System: A172 glioblastoma cells
# experiment_description: A172 cell growth inhibition assay (CellTiter-Glo)
# Type: cell-based
# condition_summary: Homo sapiens, A 172, 48-72 hours treatment, CellTiter-Glo luminescence, test range 1-30 μM
Listing of recorded pIC50 by entry.
Quick note: pIC50 means taking -log10 of the concentration in moles per liter.

Exercise: Any idea what pIC50 was measured for O=S(=O)(Nc1ccccc1)N1CCCC(C(c2ccc(F)cc2)c2ccc(F)cc2)C1 (centres unmarked) ?
Solution: 4.64

Exercise: Entry under review: O=S(=O)(NCc1ccc(F)cc1)N1CCCC(C2c3ccccc3CCc3ccccc32)C1 (centres unmarked) . Reported pIC50?
Solution: 4.79

Exercise: What pIC50 value was documented for this compound, O=S(=O)(Nc1ccc(Cl)cc1)N1CCCC(=C(c2ccc(F)cc2)c2ccc(F)cc2)C1 ?
Solution: 4.79

Exercise: Entry under review: O=S(=O)(Nc1ncc(C(F)(F)F)cn1)N1CCCC(C2c3ccccc3CCc3ccccc32)C1 (centres unmarked) . Reported pIC50?
Solution: 4.60

Exercise: Name the recorded pIC50 for O=S(=O)(Nc1ccc2c(c1)OC(F)(F)O2)N1CCCC(C2c3ccccc3CCc3ccccc32)C1 (centres unmarked) .
Solution: 4.89

Exercise: Requested field: pIC50. Item: O=S(=O)(NCc1ccc(C(F)(F)F)cc1)N1CCCC(C2c3ccccc3CCc3ccccc32)C1 (centres unmarked)
Solution: 4.98

Exercise: So what's the measured pIC50 for this one? O=S(=O)(Nc1ccc(C(F)(F)F)cc1)N1CCCC(C(c2ccc(F)cc2)c2ccc(F)cc2)C1 (centres unmarked)
Solution: 4.77

Exercise: Please report the recorded pIC50 for O=S(=O)(Nc1cccc(C(F)(F)F)c1)N1CCOC(C(c2ccc(F)cc2)c2ccc(F)cc2)C1 (centres unmarked) .
Solution: 4.69
